This collection of values is drawn from paper PMC9407527.

tested target: T1, fluorescent-tagged His-tagged occludin 413–522 (human, UniProt Q16625 413-522, fluorescent label from the MonolithNT His-Tag Labeling Kit (NanoTemper))
T1 sequence (looked up): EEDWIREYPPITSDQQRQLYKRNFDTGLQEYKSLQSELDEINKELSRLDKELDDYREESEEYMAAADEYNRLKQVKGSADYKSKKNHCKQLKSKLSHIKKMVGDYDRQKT
method: MST
pKd: −log10 of the molar value. Square brackets hold non-standard residues; d marks the D form. Ends that are not written are not given here. pS = N[C@@H](COP(=O)(O)O)C(=O)O
Entries annotated with measured pKd
quantity kind: pKd

{"columns": ["binder", "quantity kind", "observed result"],
 "data": [
  ["AKGRAGRSKRTEQDHYETDYTTGGESCDEL [synthetic occludin 383–412 peptide, nonphosphorylated]", "pKd", 3.76],
  ["AKGRAGRSKRTEQDHYETDYTTGGE[pS]CDEL [synthetic occludin 383–412 peptide phosphorylated at S408]", "pKd", 4.43]
]}
